# SYSTEM: β2 (trachea) (Cavia porcellus, UniProt Q8K4Z4)
# Construct: isolated guinea pig tracheal chains; from tissue; host or cells: isolated guinea pig tracheal chains
# Sequence (Q8K4Z4 whole entry): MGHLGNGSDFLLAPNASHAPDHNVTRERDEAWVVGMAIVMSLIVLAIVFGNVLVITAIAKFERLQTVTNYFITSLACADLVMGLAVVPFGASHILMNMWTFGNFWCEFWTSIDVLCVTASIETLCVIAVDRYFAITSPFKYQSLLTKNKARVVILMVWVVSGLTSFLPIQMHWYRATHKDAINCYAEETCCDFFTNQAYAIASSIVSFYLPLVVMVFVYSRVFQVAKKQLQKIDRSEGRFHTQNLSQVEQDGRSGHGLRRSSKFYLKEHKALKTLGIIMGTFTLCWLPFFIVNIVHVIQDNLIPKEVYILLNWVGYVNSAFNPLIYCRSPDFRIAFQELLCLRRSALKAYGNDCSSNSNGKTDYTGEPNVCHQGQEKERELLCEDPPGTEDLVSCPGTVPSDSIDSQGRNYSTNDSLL
# PROTOCOL_DESCRIPTION: inhibition of isoproterenol-induced relaxation in isolated guinea pig tracheal chains contracted with PGF2α (β2)
# Assay type: cell-based
# CONDITION: read-out: pA2 values β2 (trachea) (converted)
ENDPOINT: log10 Kb (log10 of the value in nM)
Parameter value (number): base-10 log of Kb in nM.

Dear colleague, could you please provide log10 Kb for the compounds listed below?
1. CN(C)CCNCC(O)COc1ccccc1C#N (stereo not drawn) [N(CH3)2]
2. N#Cc1ccccc1OCC(O)CNCCc1ccncc1 (stereo not drawn)
3. N#Cc1ccccc1OCC(O)CNCCN1CCNCC1 (stereo not drawn)
4. N#Cc1ccccc1OCC(O)CNCCc1cccnc1 (stereo not drawn)
5. N#Cc1ccccc1OCC(O)CNCCc1ccccn1 (stereo not drawn)

1. 3.05
2. 2.48
3. 1.81
4. 2.14
5. 4.54

// log10 Kb lookup, key: N#Cc1ccccc1OCC(O)CNCCN1CCOCC1 (stereo not drawn)
1.95
